B1: library; numbered along this chain (parent)
chain: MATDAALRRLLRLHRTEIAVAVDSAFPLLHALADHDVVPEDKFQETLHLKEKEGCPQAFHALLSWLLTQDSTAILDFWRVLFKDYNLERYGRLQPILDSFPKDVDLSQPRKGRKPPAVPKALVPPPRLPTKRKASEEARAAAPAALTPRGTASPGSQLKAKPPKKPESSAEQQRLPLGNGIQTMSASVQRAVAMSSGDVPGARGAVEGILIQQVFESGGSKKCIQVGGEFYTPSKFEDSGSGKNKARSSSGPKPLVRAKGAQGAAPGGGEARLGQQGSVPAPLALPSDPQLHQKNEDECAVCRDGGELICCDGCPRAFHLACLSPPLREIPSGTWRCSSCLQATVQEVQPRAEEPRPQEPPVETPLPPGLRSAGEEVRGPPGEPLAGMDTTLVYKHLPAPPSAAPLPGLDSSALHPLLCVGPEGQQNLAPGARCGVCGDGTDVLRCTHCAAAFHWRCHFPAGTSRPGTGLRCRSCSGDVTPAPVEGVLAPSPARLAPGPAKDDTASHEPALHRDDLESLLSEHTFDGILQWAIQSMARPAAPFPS

Variants of: B1
Assay: AIRE transcriptional activation functional score (insulin promoter-GFP; nonsense median 0, synonymous median 1) (normalised score); higher = higher AIRE activity (more reporter activation)
Conditions: with insulin promoter-GFP reporter in HEK293
measuredAttribute: AIRE transcriptional activation functional score
Respond using a number only.

Illustrative cases are given below, each with its answer.
[[record]]
variantdescription = "C55D"
experimentalvalue = 0.495

[[record]]
variantdescription = "A493M"
experimentalvalue = 1.19

[[record]]
variantdescription = "C322F"
experimentalvalue = 0.737

[[record]]
variantdescription = "F59T"
experimentalvalue = 0.102

[[record]]
variantdescription = "A265I"
experimentalvalue = 0.975

[[record]]
variantdescription = "P381Y"
experimentalvalue = 1.39

[[record]]
variantdescription = "P148Y"
experimentalvalue = 1.97

[[record]]
variantdescription = "L128C"
experimentalvalue = 1.19


# lookup: AIRE transcriptional activation functional score of P400A
1.56

Which AIRE transcriptional activation functional score reading was recorded for the variant R473E ?
1.16

If you can, please state the reported AIRE transcriptional activation functional score value of G155R .
1.01

Please look up its AIRE transcriptional activation functional score: P331I
1.59

Which AIRE transcriptional activation functional score is listed for S168I ?
0.348

Query: AIRE transcriptional activation functional score; subject: H292R
0.856

Look at this variant and give its reported AIRE transcriptional activation functional score. L470K
0.988

What does the data say about its AIRE transcriptional activation functional score? Entry: V487S
0.901

For the variant shown here, A152R , give the reported AIRE transcriptional activation functional score.
0.913

Quick check: AIRE transcriptional activation functional score of Q212R ?
1.09

Returns the measured AIRE transcriptional activation functional score for the input variant. Input: I18G
0.378

// AIRE transcriptional activation functional score lookup, key: I181K
0.076

Requested read-out: AIRE transcriptional activation functional score. Entry: A403C
0.942

# input variant: L323I ; wanted: its AIRE transcriptional activation functional score
0.984

Look at this variant and give its reported AIRE transcriptional activation functional score. P39W
0.403

Fill in the blank: the reported AIRE transcriptional activation functional score of A31D is ____.
0.894

Provenance of the data: the supplement of paper PMC12667976
